The reported measurements were obtained from ChEMBL document CHEMBL5260808.

measuredOn: Voltage-gated inwardly rectifying potassium channel KCNH2 (Homo sapiens)
Sequence (Q12809 whole entry): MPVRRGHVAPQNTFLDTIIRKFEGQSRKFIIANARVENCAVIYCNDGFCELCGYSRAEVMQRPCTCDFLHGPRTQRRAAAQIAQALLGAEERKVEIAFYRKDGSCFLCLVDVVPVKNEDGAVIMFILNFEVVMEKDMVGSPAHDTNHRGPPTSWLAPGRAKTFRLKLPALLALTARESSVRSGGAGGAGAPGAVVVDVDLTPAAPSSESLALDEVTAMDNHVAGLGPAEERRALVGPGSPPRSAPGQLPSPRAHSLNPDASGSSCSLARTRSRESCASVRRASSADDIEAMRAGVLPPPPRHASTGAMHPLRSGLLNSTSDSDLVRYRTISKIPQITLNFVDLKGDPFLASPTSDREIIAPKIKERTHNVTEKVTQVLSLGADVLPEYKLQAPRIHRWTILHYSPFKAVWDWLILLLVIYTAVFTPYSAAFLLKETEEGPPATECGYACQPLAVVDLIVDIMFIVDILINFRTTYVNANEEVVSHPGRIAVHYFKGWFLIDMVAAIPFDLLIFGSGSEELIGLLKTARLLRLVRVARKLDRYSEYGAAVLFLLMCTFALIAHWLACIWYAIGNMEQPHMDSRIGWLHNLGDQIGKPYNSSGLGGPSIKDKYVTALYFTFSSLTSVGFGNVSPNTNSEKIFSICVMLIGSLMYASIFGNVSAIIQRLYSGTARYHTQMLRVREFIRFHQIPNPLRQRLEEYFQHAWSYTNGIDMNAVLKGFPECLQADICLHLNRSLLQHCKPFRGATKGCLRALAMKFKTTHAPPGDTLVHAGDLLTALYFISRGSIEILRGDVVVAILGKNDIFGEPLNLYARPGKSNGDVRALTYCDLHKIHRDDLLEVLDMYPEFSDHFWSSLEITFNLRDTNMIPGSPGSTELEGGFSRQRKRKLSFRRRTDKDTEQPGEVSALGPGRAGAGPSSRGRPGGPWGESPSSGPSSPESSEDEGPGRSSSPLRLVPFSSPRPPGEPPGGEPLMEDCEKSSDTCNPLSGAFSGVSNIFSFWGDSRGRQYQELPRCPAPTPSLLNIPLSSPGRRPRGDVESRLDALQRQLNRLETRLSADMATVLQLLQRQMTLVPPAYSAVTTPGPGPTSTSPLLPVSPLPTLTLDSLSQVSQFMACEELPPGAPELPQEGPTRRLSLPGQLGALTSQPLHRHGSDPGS
protocolDescription: Displacement of [3H]dofetilide from human ERG expressed in CHO-K1 cell membrane measured after 45 mins by topcount scintillation counting method
// reported pIC50 per item
Interpret pIC50 as the negative base-10 log of the concentration measured in mol/L.

COCC(=O)NCCN1CCC[C@@H]1Cn1nc(Cc2ccc(Cl)cc2)c2ccccc2c1=O : 6.70
CCCC(=O)NCCN1CCC[C@@H]1Cn1nc(Cc2ccc(Cl)cc2)c2ccccc2c1=O : 7.20
O=C(NCCN1CCC[C@@H]1Cn1nc(Cc2ccc(Cl)cc2)c2ccccc2c1=O)C1CCCC1 : 7.30
COCCC(=O)NCCN1CCC[C@@H]1Cn1nc(Cc2ccc(Cl)cc2)c2ccccc2c1=O : 6.40

Could you now look at the following compound, please?
### Prompt If you can, please state the reported pIC50 value of "CCC(=O)NCCN1CCC[C@@H]1Cn1nc(Cc2ccc(Cl)cc2)c2ccccc2c1=O" .
### Response 6.70

---

// reported logD per item
protocolDescription: Distribution coefficient, log D of compound in n-octanol and phosphate buffered saline at pH 7.4 by HPLC analysis
Format: physicochemical

CN1CCCC(n2nc(Cc3ccc(Cl)cc3)c3ccccc3c2=O)CC1 (configuration not stated) [AZELASTINE] : 2.3
O=C(NCCN1CCC[C@@H]1Cn1nc(Cc2ccc(Cl)cc2)c2ccccc2c1=O)C1CCOCC1 : 3.3
COCC(=O)NCCN1CCC[C@@H]1Cn1nc(Cc2ccc(Cl)cc2)c2ccccc2c1=O : 3.1
COCCCC(=O)NCCN1CCC[C@@H]1Cn1nc(Cc2ccc(Cl)cc2)c2ccccc2c1=O.O=C(O)C(F)(F)F : 3.5

### Prompt If you can, please state the reported logD value of "COCCCC(=O)N(C)CCN1CCC[C@@H]1Cn1nc(Cc2ccc(Cl)cc2)c2ccccc2c1=O" .
### Response 3.5

### Prompt Now consider "CCC(=O)NCCN1CCC[C@@H]1Cn1nc(Cc2ccc(Cl)cc2)c2ccccc2c1=O" .
### Response 3.4

### Prompt Now consider "CCCNC(=O)CCCN1CCC[C@@H]1Cn1nc(Cc2ccc(Cl)cc2)c2ccccc2c1=O" .
### Response 3.3
